B1: LINE1-full (parent)
chain: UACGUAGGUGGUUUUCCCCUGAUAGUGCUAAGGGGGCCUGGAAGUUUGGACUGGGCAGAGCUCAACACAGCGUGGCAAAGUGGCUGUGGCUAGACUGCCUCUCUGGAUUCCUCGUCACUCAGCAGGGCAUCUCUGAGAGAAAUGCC

Variants of: B1
Test: self-cleavage, relative activity (ratio to wild type); higher = more cleavage; in vitro, sequencing; the parent is a self-cleaving ribozyme
List of self-cleavage values.
Readout: self-cleavage

In [3]: df
Out[3]:
    variant_description        readout  reported_result
 0            U14C U62A  self-cleavage              0.1
 1            U13C U47G  self-cleavage             0.81
 2           U15A A142C  self-cleavage             1.71
 3           G88A U104C  self-cleavage             0.15
 4           U14C U143G  self-cleavage             1.93
 5             U1C G10A  self-cleavage             0.95
 6            A65G U96A  self-cleavage             0.07
 7            U14A A65G  self-cleavage             0.06
 8           G60A A141G  self-cleavage             0.02
 9           C63A A129G  self-cleavage             0.09
10             A2G A30G  self-cleavage             0.87
11            U14A A42C  self-cleavage             0.97
12            U62C A65U  self-cleavage             0.01
13           A24C A124G  self-cleavage             0.98
14          A140G C145A  self-cleavage             1.28
15           U96A C110G  self-cleavage             0.09
16             G4A U26A  self-cleavage             0.82
17                A140G  self-cleavage             1.07
18            A77G A79G  self-cleavage             0.95
19            U23C A78U  self-cleavage             2.06
20            A43U A77G  self-cleavage              2.1
21           G80A A141G  self-cleavage             1.89
22          A129U A141G  self-cleavage             1.34
23            U29C G41A  self-cleavage             1.32
24          U132A U134C  self-cleavage             1.61
25            U26C C71U  self-cleavage              0.9
26           G34C A141G  self-cleavage             1.66
27           U13A A140U  self-cleavage             0.89
28           C56U U119C  self-cleavage             0.21
29           U45C G114A  self-cleavage             1.48
30            C63A A94G  self-cleavage             0.08
31            U39C U73G  self-cleavage             1.08
32                  A6G  self-cleavage             0.91
33            U12A A42G  self-cleavage             1.28
34            C19U U96A  self-cleavage             0.07
35            G34U U73A  self-cleavage             2.36
36           U20A U132A  self-cleavage             1.61
37             A2G U12C  self-cleavage             0.96
38          A141G A142G  self-cleavage             1.45
39           A24U A117C  self-cleavage              1.6
40            U20A G53U  self-cleavage              1.1
41           U14C C116U  self-cleavage             1.14
